- study system: UniProt:Q05769
- Sequence (Q05769 18-604): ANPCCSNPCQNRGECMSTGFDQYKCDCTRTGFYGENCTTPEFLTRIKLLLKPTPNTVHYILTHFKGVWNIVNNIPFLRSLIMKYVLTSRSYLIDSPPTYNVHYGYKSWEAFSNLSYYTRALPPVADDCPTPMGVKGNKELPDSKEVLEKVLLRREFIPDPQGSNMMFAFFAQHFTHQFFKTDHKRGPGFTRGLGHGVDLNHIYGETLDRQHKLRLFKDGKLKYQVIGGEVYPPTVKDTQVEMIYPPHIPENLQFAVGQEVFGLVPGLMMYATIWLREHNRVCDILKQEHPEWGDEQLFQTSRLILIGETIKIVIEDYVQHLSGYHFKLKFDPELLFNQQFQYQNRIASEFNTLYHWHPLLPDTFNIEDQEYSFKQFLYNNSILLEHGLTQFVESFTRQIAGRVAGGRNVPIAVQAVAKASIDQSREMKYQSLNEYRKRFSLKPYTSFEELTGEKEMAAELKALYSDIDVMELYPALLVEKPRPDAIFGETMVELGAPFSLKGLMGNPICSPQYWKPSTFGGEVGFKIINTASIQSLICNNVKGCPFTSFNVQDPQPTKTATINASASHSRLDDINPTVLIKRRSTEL
measurement kind: IC50

The compound listed as COc1ccc2c(c1)c(CC(=O)O)cn2C(=O)c1ccc(Cl)cc1 [2′-des-methylindomethacin] has a reported IC50 of ~500 µM

Ref: paper PMC2720641
